# protocol_notes: Acute toxicity in mice (LD50)
# condition_info: mouse, in vivo, intravenous injection
value_kind: LD50 (mg/kg)
Reply numerically in mg/kg, unit not repeated.

Ask | Would you mind telling me what LD50 value was observed for Nc1nnc(NCCCOc2cccc(CN3CCCCC3)c2)s1 ?
Reply | 53.2

====

# protocol_notes: Acute toxicity in mice (LD50)
# condition_info: mouse, in vivo, po, peroral
value_kind: LD50 (mg/kg)
Give the value, in units of mg/kg, as a plain number.

Ask | For the compound Nc1nnc(NCCCOc2cccc(CN3CCCCC3)c2)s1 , what LD50 is on record?
Reply | 1220
